src = patent US20230357179A1

- Tgt: C-Raf kinase (Homo sapiens, UniProt P04049, Y340D/Y341D)
- Construct: Y340D,; GST (N); purchased Sigma
- Sequence (P04049 307-648 Y340D/Y341D): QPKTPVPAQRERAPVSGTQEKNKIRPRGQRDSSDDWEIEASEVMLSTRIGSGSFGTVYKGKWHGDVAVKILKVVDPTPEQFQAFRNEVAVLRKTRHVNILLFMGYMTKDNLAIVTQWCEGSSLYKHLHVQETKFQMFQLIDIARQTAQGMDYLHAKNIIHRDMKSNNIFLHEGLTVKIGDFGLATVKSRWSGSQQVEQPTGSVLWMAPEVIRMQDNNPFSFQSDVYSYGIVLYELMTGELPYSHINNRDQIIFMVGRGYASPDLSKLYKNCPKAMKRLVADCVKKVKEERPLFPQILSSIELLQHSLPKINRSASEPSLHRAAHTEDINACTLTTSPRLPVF
- Test Method Notes: Biochemical assay for C-Raf.1 (coupled pyruvate kinase/lactate dehydrogenase)
- Condition Label: read-out: CRAF.1 IC50
pIC50: −log10 of the molar value.
Measured pIC50, listed per entry.
Property Label: pIC50

[[record]]
mol_smiles = "Cc1cc(F)c(NC(=O)NCCC2(C(F)(F)F)CC2)cc1-c1cc(N2CCOCC2)nc(N2CCOCC2)c1"
endpoint_value = "≥ 7.00"

[[record]]
mol_smiles = "CNC(=O)c1cc(-c2cnnc(-c3cc(NC(=O)NCCC(C)(C)C)c(F)cc3C)c2)ccn1"
endpoint_value = "6.30 to 7.00"

[[record]]
mol_smiles = "Cc1cc(F)c(NC(=O)N[C@H]2C[C@H](N(C)C)C2)cc1-c1cc(OCCO)nc(-c2ccnc3[nH]ncc23)c1"
endpoint_value = "< 6.00"

[[record]]
mol_smiles = "Cc1cc(F)c(NC(=O)NCCC2(C)CC2)cc1-c1cc(OCCO)nc(-c2ccnc3[nH]ncc23)c1"
endpoint_value = "≥ 7.00"

[[record]]
mol_smiles = "Cc1cc(F)c(NC(=O)NCCC2(C)CC2)cc1-c1nc(NCCO)cc(N2CCOCC2)n1"
endpoint_value = "6.30 to 7.00"

[[record]]
mol_smiles = "Cc1cc(F)c(NC(=O)NCC[C@@H]2CCO2)cc1-c1cc(OCCO)nc(-c2ccnc3[nH]ncc23)c1"
endpoint_value = "< 6.00"

[[record]]
mol_smiles = "Cc1cc(F)c(NC(=O)NC2CC(C)(C)C2)cc1-c1cc(OCCO)nc(-c2ccnc(NC(=O)C3CC3)c2)n1"
endpoint_value = "≥ 7.00"

